Entry source: the supplement of paper PMC10567573

B1: INTS4 (parent)
chain: AKQIMEETYKMEFMYSGVENKQVV

# Variants of: B1
# experimental protocol: protein stability index of a GFP-peptide fusion (GPS, HEK-293T) (PSI 1-6); higher = more stable;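 note: lentivirally expressed fusions sorted by FACS into six bins by GFP to DsRed ratio, PSI derived from sequencing read proportions per bin multiplied by bin number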
# assay context: c terminus: a fixed tail appended
Quick reference for protein stability index among some variants
Write the number on its own, no unit after it.

Examples with answers:
Prompt: Form field: reported protein stability index of `Q3K`
Response: 1.96

Prompt: Form field: reported protein stability index of `V18N`
Response: 2.02

Prompt: Form field: reported protein stability index of `V18W`
Response: 1.95

Prompt: Form field: reported protein stability index of `Y15I`
Response: 2

More entries:
Prompt: Form field: reported protein stability index of `E6F`
Response: 2.01

Prompt: Form field: reported protein stability index of `K10M`
Response: 1.99
